The values you see were collected from patent US20260062463A1.

Measured pKd accompanies every entry in the list below.
- Measurement target: T1, AAV9 (adeno-associated virus 9, Assembled 60-mer capsid of VP1/VP2/VP3 (nested products of one cap gene), amine-coupled to a CM5 chip; the letters give one VP1 subunit only.)
- T1 construct: also called adeno-associated virus serotype 9
- Assay details: SPR, AAV amine-coupled to CM5 chip
pKd: −log10 of the molar value.

- Binder: "A4-C8 (bispecific antibody) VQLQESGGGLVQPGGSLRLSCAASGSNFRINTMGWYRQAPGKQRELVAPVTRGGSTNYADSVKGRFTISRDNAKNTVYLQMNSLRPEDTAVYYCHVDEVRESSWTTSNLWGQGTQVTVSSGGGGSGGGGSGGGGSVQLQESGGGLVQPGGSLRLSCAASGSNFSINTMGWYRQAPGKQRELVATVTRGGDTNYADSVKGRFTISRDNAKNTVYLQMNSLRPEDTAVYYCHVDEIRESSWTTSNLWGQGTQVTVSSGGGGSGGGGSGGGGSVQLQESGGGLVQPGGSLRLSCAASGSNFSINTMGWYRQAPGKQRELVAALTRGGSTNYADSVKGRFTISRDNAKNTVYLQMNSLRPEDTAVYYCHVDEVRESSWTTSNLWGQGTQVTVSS"
  Result modifier: "="
  pKd: 9.55
- Binder: "A4-C1 (VHH) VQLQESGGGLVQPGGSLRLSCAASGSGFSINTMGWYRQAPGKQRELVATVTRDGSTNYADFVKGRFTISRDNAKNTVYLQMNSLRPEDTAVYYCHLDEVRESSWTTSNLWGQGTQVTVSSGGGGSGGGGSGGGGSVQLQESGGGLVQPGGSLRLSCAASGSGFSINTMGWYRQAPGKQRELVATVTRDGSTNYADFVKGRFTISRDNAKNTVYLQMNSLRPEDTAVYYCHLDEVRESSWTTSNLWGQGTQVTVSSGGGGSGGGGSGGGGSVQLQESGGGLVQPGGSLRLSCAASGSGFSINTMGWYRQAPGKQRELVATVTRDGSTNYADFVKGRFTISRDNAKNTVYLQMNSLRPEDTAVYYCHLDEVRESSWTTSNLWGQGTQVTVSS"
  Result modifier: "≥"
  pKd: 8.99
- Binder: "A4-B2 (bispecific antibody) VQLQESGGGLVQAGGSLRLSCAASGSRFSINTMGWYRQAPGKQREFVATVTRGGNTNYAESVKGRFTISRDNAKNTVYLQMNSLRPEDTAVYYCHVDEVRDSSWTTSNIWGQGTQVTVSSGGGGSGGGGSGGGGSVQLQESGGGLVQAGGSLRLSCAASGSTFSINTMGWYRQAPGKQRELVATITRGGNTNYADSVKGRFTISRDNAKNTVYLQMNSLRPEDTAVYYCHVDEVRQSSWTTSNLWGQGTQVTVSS"
  Result modifier: "="
  pKd: 8.08
- Binder: "A4-C9 (bispecific antibody) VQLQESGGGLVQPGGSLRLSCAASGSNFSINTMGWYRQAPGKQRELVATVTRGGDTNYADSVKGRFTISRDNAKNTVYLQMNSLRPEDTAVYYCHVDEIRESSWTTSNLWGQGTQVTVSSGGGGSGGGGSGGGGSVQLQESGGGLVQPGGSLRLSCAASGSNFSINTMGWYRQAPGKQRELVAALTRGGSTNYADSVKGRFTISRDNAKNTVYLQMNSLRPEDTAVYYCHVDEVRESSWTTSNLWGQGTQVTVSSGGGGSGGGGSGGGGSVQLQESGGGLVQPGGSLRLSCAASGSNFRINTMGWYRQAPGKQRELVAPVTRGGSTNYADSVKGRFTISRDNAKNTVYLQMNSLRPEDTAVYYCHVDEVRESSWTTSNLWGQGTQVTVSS"
  Result modifier: "="
  pKd: 9.17
